Hello, the source for this data is BindingDB's records for doi:10.7270/Q2TX3CSC, in case you need it.

Entries and their measured log10 EC50 follow.
Molecular target: Solute carrier family 12 member 5 (Homo sapiens, UniProt Q9H2X9)
Sequence (Q9H2X9 whole entry): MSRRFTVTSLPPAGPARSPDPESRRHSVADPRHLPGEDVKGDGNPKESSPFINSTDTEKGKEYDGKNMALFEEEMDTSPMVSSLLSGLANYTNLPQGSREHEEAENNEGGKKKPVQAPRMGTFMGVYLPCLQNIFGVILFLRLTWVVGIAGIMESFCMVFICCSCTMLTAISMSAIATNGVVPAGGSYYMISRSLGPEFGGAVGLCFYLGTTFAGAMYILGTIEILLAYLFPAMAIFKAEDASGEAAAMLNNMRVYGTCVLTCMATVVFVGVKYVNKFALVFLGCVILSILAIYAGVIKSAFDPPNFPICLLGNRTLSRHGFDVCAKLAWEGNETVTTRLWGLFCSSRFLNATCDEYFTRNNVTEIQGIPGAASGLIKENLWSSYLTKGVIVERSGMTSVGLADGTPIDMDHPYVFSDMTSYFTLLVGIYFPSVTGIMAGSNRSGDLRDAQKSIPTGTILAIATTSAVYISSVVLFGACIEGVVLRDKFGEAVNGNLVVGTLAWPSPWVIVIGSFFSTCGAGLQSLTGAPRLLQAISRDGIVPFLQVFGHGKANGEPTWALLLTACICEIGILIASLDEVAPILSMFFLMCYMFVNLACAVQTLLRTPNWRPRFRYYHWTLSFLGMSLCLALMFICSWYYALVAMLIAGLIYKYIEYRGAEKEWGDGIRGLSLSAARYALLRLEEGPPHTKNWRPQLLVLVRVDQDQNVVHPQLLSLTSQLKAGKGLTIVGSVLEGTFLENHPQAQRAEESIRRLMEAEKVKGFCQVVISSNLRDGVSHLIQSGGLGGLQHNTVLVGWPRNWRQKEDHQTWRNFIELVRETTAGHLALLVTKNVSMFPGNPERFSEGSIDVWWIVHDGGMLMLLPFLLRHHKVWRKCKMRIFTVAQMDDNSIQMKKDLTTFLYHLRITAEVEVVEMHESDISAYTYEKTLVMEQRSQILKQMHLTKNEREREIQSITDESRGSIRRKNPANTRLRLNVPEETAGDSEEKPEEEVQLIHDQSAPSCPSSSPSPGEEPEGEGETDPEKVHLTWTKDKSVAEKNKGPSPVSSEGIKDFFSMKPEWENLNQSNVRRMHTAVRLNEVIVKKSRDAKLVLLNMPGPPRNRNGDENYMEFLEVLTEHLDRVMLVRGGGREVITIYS
Experiment: concentration-response of KCC2 transport modulators – cell-based, HEK293 KCC2, FluoZin-2 fluorescence, dose response (AID 1736)
measure: log10 EC50 (log10 of the value in µM)

{"compound": "N#Cc1nc(-c2cccs2)oc1N1CCN(Cc2ccccc2)CC1", "tested_target": "Solute carrier family 12 member 5 (Homo sapiens, UniProt Q9H2X9)", "log10 EC50": 0.55}
{"compound": "O=C(c1ccccc1SCc1ccc(F)cc1)N1CCOCC1", "tested_target": "Solute carrier family 12 member 5 (Homo sapiens, UniProt Q9H2X9)", "log10 EC50": 0.81}
{"compound": "COc1ccccc1C(=O)NC1CCN(C(=S)NCCc2ccccc2)CC1", "tested_target": "Solute carrier family 12 member 5 (Homo sapiens, UniProt Q9H2X9)", "log10 EC50": 0.82}
{"compound": "Sc1nnc(Cc2c[nH]c3ccccc23)o1", "tested_target": "Solute carrier family 12 member 5 (Homo sapiens, UniProt Q9H2X9)", "log10 EC50": 1.21}
{"compound": "O=C(CSc1ccc(-c2cccs2)nn1)Nc1ccccc1F", "tested_target": "Solute carrier family 12 member 5 (Homo sapiens, UniProt Q9H2X9)", "log10 EC50": 0.71}
{"compound": "CCOc1cc(S(=O)(=O)NCc2ccccc2)ccc1F", "tested_target": "Solute carrier family 12 member 5 (Homo sapiens, UniProt Q9H2X9)", "log10 EC50": 0.77}
{"compound": "O=C(COC(=O)c1cc([N+](=O)[O-])ccc1NCc1ccccc1)NC1CCCCC1", "tested_target": "Solute carrier family 12 member 5 (Homo sapiens, UniProt Q9H2X9)", "log10 EC50": -0.19}
{"compound": "CCc1cc(C(=O)N2CCCC(CNC(=O)c3ccc(-c4ccccc4)cc3)C2)no1 (stereo not given)", "tested_target": "Solute carrier family 12 member 5 (Homo sapiens, UniProt Q9H2X9)", "log10 EC50": 0.51}
{"compound": "CCOc1[nH]n(-c2ccccc2)c(=O)c1C=Nc1ccc(F)cc1F", "tested_target": "Solute carrier family 12 member 5 (Homo sapiens, UniProt Q9H2X9)", "log10 EC50": -0.34}
{"compound": "O=C(NCC1CCCN(C(=O)c2cccnc2)C1)c1ccc(-c2ccccc2)cc1 (stereo not given)", "tested_target": "Solute carrier family 12 member 5 (Homo sapiens, UniProt Q9H2X9)", "log10 EC50": 0.45}
